Target: cAMP and cAMP-inhibited cGMP 3',5'-cyclic phosphodiesterase 10A (Homo sapiens, UniProt Q9Y233)
Sequence (Q9Y233 whole entry): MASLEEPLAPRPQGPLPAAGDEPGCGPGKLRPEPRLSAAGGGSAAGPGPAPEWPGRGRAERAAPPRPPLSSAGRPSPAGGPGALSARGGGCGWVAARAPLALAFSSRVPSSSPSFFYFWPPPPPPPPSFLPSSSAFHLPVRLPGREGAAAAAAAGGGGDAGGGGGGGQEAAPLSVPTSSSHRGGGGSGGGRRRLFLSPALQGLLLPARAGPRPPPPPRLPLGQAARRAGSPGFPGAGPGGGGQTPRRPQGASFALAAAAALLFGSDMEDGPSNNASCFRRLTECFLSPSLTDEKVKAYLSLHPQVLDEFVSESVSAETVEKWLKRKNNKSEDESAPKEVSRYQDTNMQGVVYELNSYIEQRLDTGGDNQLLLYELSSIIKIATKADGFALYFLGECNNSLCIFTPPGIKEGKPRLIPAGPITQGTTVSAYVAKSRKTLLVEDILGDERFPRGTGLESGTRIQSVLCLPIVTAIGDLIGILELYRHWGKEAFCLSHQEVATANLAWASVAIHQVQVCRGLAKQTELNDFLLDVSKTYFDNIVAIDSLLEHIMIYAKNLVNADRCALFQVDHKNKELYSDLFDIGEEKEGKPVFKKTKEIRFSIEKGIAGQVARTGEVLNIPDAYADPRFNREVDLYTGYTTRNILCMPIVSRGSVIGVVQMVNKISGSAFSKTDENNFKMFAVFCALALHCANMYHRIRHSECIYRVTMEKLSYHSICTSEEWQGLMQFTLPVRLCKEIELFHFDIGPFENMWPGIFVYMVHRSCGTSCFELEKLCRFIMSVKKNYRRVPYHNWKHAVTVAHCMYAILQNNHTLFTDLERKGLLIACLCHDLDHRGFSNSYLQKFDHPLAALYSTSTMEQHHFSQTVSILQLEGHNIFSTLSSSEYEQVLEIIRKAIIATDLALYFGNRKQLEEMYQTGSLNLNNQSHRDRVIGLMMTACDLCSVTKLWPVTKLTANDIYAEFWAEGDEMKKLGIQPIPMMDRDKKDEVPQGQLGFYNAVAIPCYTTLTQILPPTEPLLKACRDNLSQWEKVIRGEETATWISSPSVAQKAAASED
Assay: Fluorescence Polarization Assay: The activity of the compounds in accordance with the present invention as PDE10 inhibitors may be readily determined without undue experimentation using a fluorescence polarization (FP) methodology that is well known in the art (Huang, W., et al., J. Biomol Screen, 2002, 7: 215). […] In a typical experiment the PDE10 inhibitory activity of the compounds of the present invention was determined in accordance with the following experimental method. PDE10A2 was amplified from human fetal brain cDNA (Clontech, Mountain View, Calif.) using a forward primer corresponding to nucleotides 56-77 of human PDE10A2 (Accession No. AF127480, Genbank Identifier 4894716), containing a Kozak consensus sequence, and a reverse primer corresponding to nucleotides 2406-2413 of human PDE10A2.
endpointLabel: Ki (nM)

I. Cc1c(Cl)nc(OC[C@@H]2C[C@H]2c2ccc3ncccc3n2)nc1NCc1cnn(C)c1
II. COc1nc(OC[C@H]2C[C@@H]2c2ccc3ncccc3n2)nc(NCc2cnn(C)c2)c1C
III. Cc1nc(C)c(CNc2nc(OC[C@@H]3C[C@H]3c3ccc4ccccc4n3)nc(Cl)c2C)s1
Rank the listed compounds according to Ki, from the largest value downward. Answer format: the labels, in the requested order.
II, I, III
(II: 0.17 nM, I: 0.019 nM, III: 0.0006 nM)
